- TARGET UNDER TEST: Adenosine receptor A2a (Homo sapiens)
- Sequence (P29274 whole entry): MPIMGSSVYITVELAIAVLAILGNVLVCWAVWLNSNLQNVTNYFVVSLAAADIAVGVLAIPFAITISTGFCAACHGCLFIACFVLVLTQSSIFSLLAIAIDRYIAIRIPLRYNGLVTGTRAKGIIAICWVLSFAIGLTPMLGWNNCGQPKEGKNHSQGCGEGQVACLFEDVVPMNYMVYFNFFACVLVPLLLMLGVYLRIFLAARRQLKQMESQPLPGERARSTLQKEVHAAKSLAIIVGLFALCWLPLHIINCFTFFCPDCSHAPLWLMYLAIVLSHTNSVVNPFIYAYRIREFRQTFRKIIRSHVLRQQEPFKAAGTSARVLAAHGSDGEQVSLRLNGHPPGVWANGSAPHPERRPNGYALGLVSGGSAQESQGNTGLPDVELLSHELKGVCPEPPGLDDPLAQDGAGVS
- EXPERIMENT: Displacement of [3H]CGS-21680 from human adenosine A2A receptor expressed in CHO cells
- Type: cell-based
- Set-up: concentration or dose not given beside the values
For each of the compounds below, state its Activity.
Number only, in %; omit the unit.

Q: Looking for the measured Activity of `CCNC(=O)[C@H]1O[C@@H](n2cnc3c(Nc4ccc(OCC(=O)Nc5ccccc5)cc4)nc(Cl)nc32)[C@H](O)[C@@H]1O` , can you help?
Ans: 36

Q: How about this compound: `CCNC(=O)[C@H]1O[C@@H](n2cnc3c(Nc4ccc(OCC(=O)NCc5ccccc5)cc4)nc(Cl)nc32)[C@H](O)[C@@H]1O`
Ans: 49

Q: How about this compound: `CCNC(=O)[C@H]1O[C@@H](n2cnc3c(Nc4ccc(OCC(=O)Nc5ccc(I)cc5)cc4)ncnc32)[C@H](O)[C@@H]1O`
Ans: 28

Q: How about this compound: `CCNC(=O)[C@H]1O[C@@H](n2cnc3c(Nc4ccc(OCC(=O)NC5CCCCC5)cc4)nc(Cl)nc32)[C@H](O)[C@@H]1O`
Ans: 46

Q: How about this compound: `CCNC(=O)[C@H]1O[C@@H](n2cnc3c(Nc4ccc(OCC(=O)Nc5ccc(F)cc5)cc4)ncnc32)[C@H](O)[C@@H]1O`
Ans: 48

Q: How about this compound: `CCNC(=O)[C@H]1O[C@@H](n2cnc3c(Nc4ccc(OCC(=O)Nc5ccc(OC)c(OC)c5)cc4)ncnc32)[C@H](O)[C@@H]1O`
Ans: 30

Q: How about this compound: `CCNC(=O)[C@H]1O[C@@H](n2cnc3c(Nc4ccc(OCC(=O)Nc5ccc(Br)cc5)cc4)ncnc32)[C@H](O)[C@@H]1O`
Ans: 26
